Source of measurements: paper PMC9482650

# experimental_system: PDZRN4_1, Q6ZMN7
# Sequence (Q6ZMN7 213-318): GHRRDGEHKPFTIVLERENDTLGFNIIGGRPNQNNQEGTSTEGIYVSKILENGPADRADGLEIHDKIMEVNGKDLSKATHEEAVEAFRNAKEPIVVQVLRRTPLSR
# experiment: holdup assay
# Design: key: below the threshold = too weak to quantify, mostly under pKd 3.1 to 4
# experimental_setup: plain residues with an end cap or a label only (N-terminal biotin on a linker: ado-ado)
property_name: pKd

Consider the worked cases shown below.
binder | pKd
TNSRHGETTV [FZD2, Q14332] | 4.18
AAVENKVTDL [PLXNB1, O43157] | below the threshold
STKRKLASAV [NCF1, P14598] | below the threshold
NVYGIESVKI [GRIA2, P42262] | below the threshold
ARESQKVSHV [FAM110B, Q8TC76] | below the threshold

For the binder shown here, QLSFNTDTLC [ABCA2, Q9BZC7] , give the reported pKd.
below the threshold

Further, for NISYRRESAI [KCNJ4, P48050] ?
4.25

Now give it for QSYPSKHDYV [CLDN18, P56856] too.
below the threshold
